# Tested on: A172
# Assay Protocol: Proliferation of somatic cancer cells (cell-titre luminescence), A172
# Assay type: cell-based
# Test Conditions: Homo sapiens, A 172; Brain A172, 72 hrs
Reported IC50 values are given for each entry in this list.
Parameter: IC50 (nM)

>>> print(df.to_string())
                                   compound  parameter  output_unit  number
0  COc1cc(C2COc3c(ccc(O)c3C)C2c2ccc(O)c(F)c2F)cc(OC)c1O (stereo not shown) [Compound 13]       IC50           nM     388
1  COc1cc(C2COc3c(ccc(O)c3C)C2c2ccc(O)cc2)cc(OC)c1O (racemic) [Compound 2]       IC50           nM     127
2  COc1cc(C2COc3c(ccc(O)c3C)C2c2ccc(O)c(F)c2)cc(OC)c1O (racemic) [Compound 9]       IC50           nM     160
3  COc1cc(C2COc3cc(O)ccc3C2c2ccc(O)c(F)c2)cc(OC)c1O (racemic) [Compound 6]       IC50           nM     193

###

# Tested on: OCSC2
# Assay Protocol: Ovarian cancer stem cell proliferation/cytotoxicity (Incucyte, CellTox), OCSC2
# Format: cell-based
# Test Conditions: Homo sapiens; OCSC-2; read-out: concentrations retarding/inhibiting proliferation of ovarian cancer stem cells
Reported IC50 values are given for each entry in this list.
Parameter: IC50

>>> print(df.to_string())
                                   compound             result
0  COc1cc(C2COc3c(ccc(O)c3C)C2c2ccc(O)c(F)c2F)cc(OC)c1O (stereo not shown) [Compound 13]     0.1 to 1 µg/mL
1  COc1cc(C2COc3c(ccc(O)c3C)C2c2ccc(O)cc2)cc(OC)c1O (racemic) [Compound 2]  0.01 to 0.1 µg/mL
2  COc1cc(C2COc3c(ccc(O)c3C)C2c2ccc(O)c(F)c2)cc(OC)c1O (racemic) [Compound 9]     0.1 to 1 µg/mL
3  COc1cc(C2COc3cc(O)ccc3C2c2ccc(O)c(F)c2)cc(OC)c1O (racemic) [Compound 6]     0.1 to 1 µg/mL
